Biological target: T1, Tse3 (type VI secretion exported 3), native recombinant protein (P. aeruginosa, UniProt Q9HYC5 1-408)
T1 construct: Tse3, type VI secretion exported 3, peptidoglycan muramidase effector of Pseudomonas aeruginosa; full-length, synthetic gene in pET-22b (NdeI/XhoI); Removal of the His tag is not mentioned; also called muramidase effector; source: E. coli BL21(DE3), purified (Ni-NTA, cation exchange, SEC)
T1 sequence: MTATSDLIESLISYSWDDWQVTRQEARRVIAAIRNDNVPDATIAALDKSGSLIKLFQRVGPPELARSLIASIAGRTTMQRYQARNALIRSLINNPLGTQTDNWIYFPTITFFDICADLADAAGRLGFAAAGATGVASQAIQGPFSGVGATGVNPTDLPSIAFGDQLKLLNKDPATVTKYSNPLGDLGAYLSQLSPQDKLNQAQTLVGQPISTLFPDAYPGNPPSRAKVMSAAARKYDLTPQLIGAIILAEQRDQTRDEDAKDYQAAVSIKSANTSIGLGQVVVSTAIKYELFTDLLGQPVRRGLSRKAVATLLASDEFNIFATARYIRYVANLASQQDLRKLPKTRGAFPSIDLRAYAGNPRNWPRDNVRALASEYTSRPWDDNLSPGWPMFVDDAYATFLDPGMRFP
Assay: SPR; Biacore 3000, 298 K; Tse3 immobilised on a CM5 chip (2689.1-3396.3 RU); Tsi3 injected, single-cycle kinetics, five concentrations (0.02-1.62 µM for wild type, E103A, Q124A; 0.1-8.1 µM for R60A, S99A, E126A); running buffer 50 mM HEPES pH 7.5, 100 mM NaCl, 0.005% Tween-20; 1:1 Langmuir fit
Details: both partners purified
readout_label: kon
Be sure to follow the number with its unit.

>  <binder>
Tsi3, truncated, without the N-terminal signal peptide (wild type) (natural protein, Tsi3, immunity protein of Tse3, Pseudomonas aeruginosa; truncated, without the N-terminal signal peptide (residues 1-20); synthetic gene in pET-22b (NdeI/XhoI); also called wild-type Tsi3; cognate immunity protein; source: E. coli BL21(DE3), purified (Ni-NTA, ion exchange, SEC)) GVDFDKTLTHPNGLVVERPVGFDARRSAEGFRFDEGGKLRNPRQLEVQRQDAPPPPDLASRRLGDGEARYKVEEDDGGSAGSEYRLWAAKPAGARWIVVSASEQSEDGEPTFALAWALLERARLQ

>  <result>
12900 M⁻¹ s⁻¹

$$$$
>  <binder>
Tsi3 Q124A (natural protein, Tsi3, Pseudomonas aeruginosa, mutant of the truncated construct without the signal peptide (residues 1-20)) GVDFDKTLTHPNGLVVERPVGFDARRSAEGFRFDEGGKLRNPRQLEVQRQDAPPPPDLASRRLGDGEARYKVEEDDGGSAGSEYRLWAAKPAGARWIVVSASEASEDGEPTFALAWALLERARLQ

>  <result>
17300 M⁻¹ s⁻¹

$$$$
>  <binder>
Tsi3 S99A (natural protein, Tsi3, Pseudomonas aeruginosa, mutant of the truncated construct without the signal peptide (residues 1-20)) GVDFDKTLTHPNGLVVERPVGFDARRSAEGFRFDEGGKLRNPRQLEVQRQDAPPPPDLASRRLGDGEARYKVEEDDGGAAGSEYRLWAAKPAGARWIVVSASEQSEDGEPTFALAWALLERARLQ

>  <result>
8990 M⁻¹ s⁻¹

$$$$
>  <binder>
Tsi3 E103A (natural protein, Tsi3, Pseudomonas aeruginosa, mutant of the truncated construct without the signal peptide (residues 1-20)) GVDFDKTLTHPNGLVVERPVGFDARRSAEGFRFDEGGKLRNPRQLEVQRQDAPPPPDLASRRLGDGEARYKVEEDDGGSAGSAYRLWAAKPAGARWIVVSASEQSEDGEPTFALAWALLERARLQ

>  <result>
14300 M⁻¹ s⁻¹

$$$$

Query: Value lookup for kon; key = Tsi3 E126A (natural protein, Tsi3, Pseudomonas aeruginosa, mutant of the truncated construct without the signal peptide (residues 1-20)) GVDFDKTLTHPNGLVVERPVGFDARRSAEGFRFDEGGKLRNPRQLEVQRQDAPPPPDLASRRLGDGEARYKVEEDDGGSAGSEYRLWAAKPAGARWIVVSASEQSADGEPTFALAWALLERARLQ
Result: 12100 M⁻¹ s⁻¹
